Test system: Aspergillus oryzae
assay_procedure: Antifungal activity against Aspergillus oryzae NCIM 643 after 48 hrs by agar well diffusion assay
Type: functional
measurement_parameters: NCIM 643, 48 h
MIC less than 100 µg/mL is 1.0; MIC greater than or equal to 100 µg/mL is 0.0.

{"columns": ["mol", "category_label"],
 "data": [
  ["COc1cc(/C=C/C(=O)c2ccccc2NC(=O)NS(=O)(=O)c2ccc(C)cc2)ccc1O", 0.0],
  ["Cc1ccc(S(=O)(=O)NC(=O)Nc2ccccc2C(=O)/C=C/c2ccc(Cl)cc2)cc1", 1.0],
  ["Cc1ccc(S(=O)(=O)NC(=O)Nc2ccccc2C(=O)/C=C/c2cccc([N+](=O)[O-])c2)cc1", 0.0],
  ["Cc1ccc(S(=O)(=O)NC(=O)Nc2ccccc2C(=O)/C=C/c2cccnc2)cc1", 0.0],
  ["COc1ccc(/C=C/C(=O)c2ccccc2NC(=O)NS(=O)(=O)c2ccc(C)cc2)cc1", 0.0],
  ["Cc1ccc(S(=O)(=O)NC(=O)Nc2ccccc2C(=O)/C=C/c2ccccc2[N+](=O)[O-])cc1", 1.0]
]}

Please indicate whether the reported MIC of COc1ccc(/C=C/C(=O)c2ccccc2NC(=O)NS(=O)(=O)c2ccc(C)cc2)cc1OC is strictly below 100 µg/mL. 0.0

Cool, now COc1ccc(/C=C/C(=O)c2ccccc2NC(=O)NS(=O)(=O)c2ccc(C)cc2)c(OC)c1 0.0

Similarly, Cc1ccc(S(=O)(=O)NC(=O)Nc2ccccc2C(=O)/C=C/c2ccc(N(C)C)cc2)cc1 ? 0.0

Now the same for Cc1ccc(S(=O)(=O)NC(=O)Nc2ccccc2C(=O)/C=C/c2c3ccccc3cc3ccccc23)cc1 0.0

----------
assay_procedure: Toxicity against Brine shrimp nauplii after 24 hrs
Assay type: organism-based
measurement_parameters: artemia salina, in vivo; read-out: ED50
Binary call on LC50 at 24 h with cut-off 10 µg/mL: strictly below means satisfied, and equality or higher means not satisfied.

{"columns": ["mol", "category_label"],
 "data": [
  ["COc1ccc(/C=C/C(=O)c2ccccc2NC(=O)NS(=O)(=O)c2ccc(C)cc2)cc1", "not satisfied"],
  ["Cc1ccc(S(=O)(=O)NC(=O)Nc2ccccc2C(=O)/C=C/c2ccccc2Cl)cc1", "not satisfied"],
  ["Cc1ccc(S(=O)(=O)NC(=O)Nc2ccccc2C(=O)/C=C/c2cccc(F)c2)cc1", "satisfied"]
]}

Would you kindly verify if LC50 at 24 h of Cc1ccc(S(=O)(=O)NC(=O)Nc2ccccc2C(=O)/C=C/c2cccnc2)cc1 is strictly less than 10 µg/mL? not satisfied

Okay, and Cc1ccc(S(=O)(=O)NC(=O)Nc2ccccc2C(=O)/C=C/c2cc(O)ccc2[N+](=O)[O-])cc1 ? not satisfied

What about this compound? Cc1ccc(S(=O)(=O)NC(=O)Nc2ccccc2C(=O)/C=C/C=C/c2ccccc2)cc1 not satisfied

Ok, now Cc1ccc(S(=O)(=O)NC(=O)Nc2ccccc2C(=O)/C=C/c2ccc[nH]2)cc1 not satisfied

Then this compound: COc1ccc(/C=C/C(=O)c2ccccc2NC(=O)NS(=O)(=O)c2ccc(C)cc2)cc1OC not satisfied

Same thing, different compound: Cc1ccc(S(=O)(=O)NC(=O)Nc2ccccc2C(=O)/C=C/c2ccc(Cl)cc2Cl)cc1 satisfied

----------
Tested on: Candida albicans
assay_procedure: Antifungal activity against Candida albicans NCIM 3102 after 48 hrs by agar well diffusion assay
Format: functional
measurement_parameters: NCIM 3102, 48 h
parameter: MIC (µg/mL)
Give the quantity in µg/mL, number only.

In the examples that follow, each entry is paired with its recorded MIC.
{"columns": ["mol", "system", "numeric_result"],
 "data": [
  ["Cc1ccc(S(=O)(=O)NC(=O)Nc2ccccc2C(=O)/C=C/c2cccc([N+](=O)[O-])c2)cc1", "Candida albicans", 256],
  ["Cc1ccc(S(=O)(=O)NC(=O)Nc2ccccc2C(=O)/C=C/c2ccc(N(C)C)cc2)cc1", "Candida albicans", 128],
  ["Cc1ccc(S(=O)(=O)NC(=O)Nc2ccccc2C(=O)/C=C/c2cccc(Br)c2)cc1", "Candida albicans", 128]
]}

Please report the recorded MIC for COc1ccc(/C=C/C(=O)c2ccccc2NC(=O)NS(=O)(=O)c2ccc(C)cc2)cc1OC . 128

Now the compound Cc1ccc(S(=O)(=O)NC(=O)Nc2ccccc2C(=O)/C=C/c2ccccc2Cl)cc1 128

Follow-up entry: Cc1ccc(S(=O)(=O)NC(=O)Nc2ccccc2C(=O)/C=C/c2ccc(Cl)cc2)cc1 64

Try the compound CCOc1cc(/C=C/C(=O)c2ccccc2NC(=O)NS(=O)(=O)c2ccc(C)cc2)ccc1O 512

What do you get for Cc1ccc(S(=O)(=O)NC(=O)Nc2ccccc2C(=O)/C=C/c2ccc(O)cc2)cc1 ? 128

Moving on to the next compound: Cc1ccc(S(=O)(=O)NC(=O)Nc2ccccc2C(=O)/C=C/c2ccncc2)cc1 64

Now consider Cc1ccc(S(=O)(=O)NC(=O)Nc2ccccc2C(=O)/C=C/c2ccc(F)cc2)cc1 and answer again. 64

Try the compound Cc1ccc(S(=O)(=O)NC(=O)Nc2ccccc2C(=O)/C=C/c2cccc(F)c2)cc1 64

Field entry: Cc1ccc(S(=O)(=O)NC(=O)Nc2ccccc2C(=O)/C=C/c2cccc(O)c2)cc1 512
